We begin with IC50 values for UniProtKB P10415, as collected from the published literature.
I'd appreciate it if you marked entries met when IC50 is lower than 100 nM and not met when it is not.

[2H]C1(N2CCc3c(nc(N(C)C)nc3NS(=O)(=O)c3ccc(N[C@H](CCN4CCN(C)CC4)CSc4ccccc4F)c(S(=O)(=O)C(F)(F)F)c3)C2)CCN(CC2=C(c3ccc(Cl)cc3)CC(C)(C)CC2)CC1 ... met
CN(CCO)CC[C@H](CSc1ccccc1)Nc1ccc(S(=O)(=O)NC(=O)c2ccc(N3CCC([C@@H](O)c4ccccc4-c4ccc(Cl)cc4)CC3)cc2)cc1S(=O)(=O)C(F)(F)F ... met
CCCCN(CCCC)C(=O)c1nn(-c2ccc(C(=O)NS(=O)(=O)c3ccc4c(c3)CCN4C(=O)Cc3ccc(Cl)c(Cl)c3)cc2C(=O)N2CCc3ccccc3C2)c(C)c1Cl ... not met

Lab log: compare recorded IC50 with 100 nM; is it strictly lower for CCCCCCNC1=C2C(=NC1=O)c1cccc3cccc2c13 ?
met

Lab log: compare recorded IC50 with 100 nM; is it strictly lower for O=C(c1cc(S(=O)(=O)N2CCc3ccccc3C2)c(O)c(O)c1O)N1CCc2ccc(S(=O)(=O)NCCc3ccc(Oc4ccccc4)cc3)cc2C1 ?
not met

Lab log: compare recorded IC50 with 100 nM; is it strictly lower for O=S(=O)(Nc1ncnc2c1CCN(C1CCN(Cc3ccccc3-c3ccc(Cl)cc3)CC1)C2)c1ccc(N[C@H](CCN2CCCCC2)CSc2ccccc2)c(S(=O)(=O)C(F)(F)F)c1 ?
not met

Lab log: compare recorded IC50 with 100 nM; is it strictly lower for CCN(CC)C[C@@H]1COCCN1CC[C@H](CSc1ccccc1)Nc1ccc(S(=O)(=O)NC(=O)c2ccc(N3CCC([C@@H](O)c4ccccc4-c4ccc(Cl)cc4)CC3)cc2)cc1S(=O)(=O)C(F)(F)F ?
met

Lab log: compare recorded IC50 with 100 nM; is it strictly lower for CCCCN(CCCC)C(=O)c1nn(-c2ccc(C(=O)NS(=O)(=O)c3ccc4ccc(C(=O)N5CCN(C)CC5)cc4c3)cc2C(=O)N2CCc3ccccc3C2)c(C)c1Cl ?
met

Lab log: compare recorded IC50 with 100 nM; is it strictly lower for CCCCN(CCCC)C(=O)c1nn(-c2ccc(C(=O)NS(=O)(=O)c3ccc4ccc(OCCCN5CCN(C)CC5)cc4c3)cc2C(=O)N2CCc3ccccc3C2)c(C)c1Cl ?
not met

Lab log: compare recorded IC50 with 100 nM; is it strictly lower for CC(C)(C)c1ccccc1NC1CCN(S(=O)(=O)c2ccc(NC(=O)c3cc(S(=O)(=O)N4CCc5ccccc5C4)cc(O)c3O)cc2)CC1 ?
not met

Lab log: compare recorded IC50 with 100 nM; is it strictly lower for CCCCN(CCCC)C(=O)c1nn(-c2ccc(C(=O)NS(=O)(=O)c3ccc4ccc(OCCCN(C)C)cc4c3)cc2C(=O)N2CCc3ccccc3C2)c(C)c1Cl ?
not met

Lab log: compare recorded IC50 with 100 nM; is it strictly lower for CC(C)c1ccccc1Cc1cc(C(=O)Nc2ccccc2Cl)c(O)c(O)c1O ?
not met

Lab log: compare recorded IC50 with 100 nM; is it strictly lower for CCCCN(CCC(=O)NCCN1CCN(C)CC1)C(=O)c1nn(-c2ccc(C(=O)NS(=O)(=O)c3ccc4c(c3)CCN4Cc3ccc(Cl)c(Cl)c3)cc2C(=O)N2CCc3ccccc3C2)c(C)c1Cl ?
not met

Lab log: compare recorded IC50 with 100 nM; is it strictly lower for [2H]C1(N2CCc3c(ncnc3NS(=O)(=O)c3ccc(N[C@H](CCN4CC5CCC(C4)O5)CSc4ccccc4)c(S(=O)(=O)C(F)(F)F)c3)C2)CCN(CC2=C(c3ccc(Cl)cc3)CC(C)(C)CC2)CC1 ?
not met

Lab log: compare recorded IC50 with 100 nM; is it strictly lower for CCOc1ccc2c3c(cccc13)C1=NC(=O)C(NCCCc3ccccc3)=C12 ?
met

Lab log: compare recorded IC50 with 100 nM; is it strictly lower for CCCCCCCCCCC(=O)c1cc(C(C)C)c(O)c(O)c1O ?
not met
